System: SF-268 CNS
Test: NCI tumour cell line growth inhibition, 48 h
MEASURE_NAME: TGI

Given O=C(COc1cc(=O)oc2ccccc12)c1ccccc1 , respond with its TGI.
> 100 µM

Given COc1ccc(C2=Nn3c(nnc3-c3ccc(F)c(Cl)c3)SC2)cc1 , respond with its TGI.
> 100 µM

Given O=NNc1ccc(-c2ccccc2)cn1 , respond with its TGI.
29.2 µM

Given N[C@H]1CCC[C@@H](O)C1O (some centres not stated) , respond with its TGI.
> 100 µM

Given N=C1OC(CN2CCN(c3ccccc3)CC2)CN1C(=O)Nc1ccccc1 (configuration not stated) , respond with its TGI.
> 100 µM

Given COc1ccccc1/C=C1\C(=O)N(C(=O)Cc2ccccc2)N=C1C , respond with its TGI.
> 100 µM

Given Cc1cccc(CNc2c3ccccc3nc3ccccc23)c1 , respond with its TGI.
11.8 µM

Given Cc1[nH]n(-c2nc(-c3ccccc3)cc(=O)[nH]2)c(=O)c1CCO , respond with its TGI.
> 100 µM

Given Nc1cc(CO)cc(Nc2c3ccccc3nc3ccccc23)c1 , respond with its TGI.
60 µM

Given COc1ccc(Cn2cc3c(c2-c2ccccc2)CCc2cnoc2-3)cc1 , respond with its TGI.
> 100 µM

Given COCN1COCN(C)C1=O , respond with its TGI.
> 100 µM

Given NCC(=O)Nc1ccc(Cl)cc1C(=O)c1ccc[nH]1 , respond with its TGI.
> 100 µM

###

System: HCT-116 colon
Experiment: NCI tumour cell line growth inhibition, 48 h
Where a SMILES comes first, the peptide text is derived from it. [ ]: non-standard residue; d: D form. Ava = NCCCCC(=O)O; Mpa = O=C(O)CCS
MEASURE_NAME: TGI

Given O=C(CC1(O)C(=O)Nc2ccccc21)c1ccc(Cl)c(Cl)c1 (centres undefined) , respond with its TGI.
> 100 µM

Given CCOC(CBr)OC1C(=O)OCC1(C)C (centres undefined) , respond with its TGI.
> 100 µM

Given CC(NC(=O)CCS)C(=O)NC(C)C(=O)NC(Cc1c[nH]c2ccccc12)C(=O)NC(Cc1c[nH]cn1)C(=O)NC(CO)C(=O)NC(Cc1c[nH]c2ccccc12)C(=O)NCCCCC(=O)NC(C)C(=O)NC(CCC(N)=O)C(=O)NC(CCCCN)C(=O)NC(C)C(=O)NC(CCCNC(=N)N)C(=O)NC(CCCCN)C(N)=O (centres undefined) ([Mpa]AAWHSW[Ava]AQKARK-NH2; configuration not given here) , respond with its TGI.
> 100 µM

Given CCCC(=O)Oc1ccc(/C(=C(\C)c2ccc(Cl)cc2)c2ccc(OCCN(CC)CC)cc2)cc1 , respond with its TGI.
3.21 µM

Given Cc1cc(NC(=O)NCCOc2ccc(N3C(N)=NC(N)=NC3(C)C)cc2Cl)ccc1S(=O)(=O)F , respond with its TGI.
> 100 µM

Given Nc1nc(N)nc(CCCCc2nc(N)nc(N)n2)n1 , respond with its TGI.
> 100 µM

Given CN(C)CCCNc1ccnc2c([N+](=O)[O-])cccc12 , respond with its TGI.
39.1 µM

Given O=C(NCCCN1CCN(CCCNC(=O)c2cccc3ccccc23)CC1)c1cccc2ccccc12 , respond with its TGI.
> 100 µM

Given CC(=O)/C=C1\CC(=O)N(C)c2ccccc2N1 , respond with its TGI.
> 100 µM

Given COc1ccc(-c2cn(C)c3c2-n2cccc2C3=O)cc1O , respond with its TGI.
26.5 µM

Given Cc1cc2ncn(CC(=O)O)c2cc1C , respond with its TGI.
> 100 µM

Given Cn1c(=O)nc2n(-c3ccc(Br)cc3)c3ccccc3nc-2c1=O , respond with its TGI.
16.3 µM

Given O=C(O)c1cccc([As]=[As]c2cccc(C(=O)O)c2)c1 (centres undefined) , respond with its TGI.
> 100 µM

Given NCCCn1c(Cl)nc2ccccc21 , respond with its TGI.
> 100 µM

Given Cc1nc(-n2nc(-c3ccccc3)cc2-c2ccccc2)sc1C(=O)CC(=O)C(=O)Nc1ccc(Cl)c(Cl)c1 , respond with its TGI.
> 100 µM

Given COc1ccc2c(c1OC)C(=O)C2 , respond with its TGI.
> 100 µM

Given COc1ccc(-c2nc(NC(=O)CS(=O)(=O)c3ccc(F)cc3)sc2C)cc1 , respond with its TGI.
38.7 µM

Given COc1cc(C[C@H]2COC(=O)[C@]2(O)Cc2ccc(OCc3ccccc3)c(OC)c2)ccc1OCc1ccccc1 , respond with its TGI.
> 100 µM

Given Nc1n[n+]([O-])c2ccc(Cl)cc2[n+]1[O-] , respond with its TGI.
> 100 µM

###

Would you kindly list TGI for each of these molecules?
System: SR leukemia
Assay: NCI tumour cell line growth inhibition, 48 h

Given S=C1SCC2CCCN12 (stereo not drawn) , respond with its TGI.
> 100 µM

Given CN1CCN(C2=C(Cl)C(=O)c3ccccc3C2=O)CC1 , respond with its TGI.
> 27.3 µM

Given O=C(CSSCC(=O)c1ccc(Cl)cc1)c1ccc(Cl)cc1 , respond with its TGI.
> 100 µM

Given O=C(Nc1cc(Cl)c(I)c(Cl)c1)C(F)(F)F , respond with its TGI.
99.5 µM

Given COc1cc(/C=C2\C(=O)N(c3cccc(NC(C)=O)c3)C(c3ccccc3)S2(=O)=O)cc(OC)c1OC (stereo not drawn) , respond with its TGI.
> 100 µM

Given CCN(CC)CCC(=O)/C=C/c1ccc(Cl)c(Cl)c1 , respond with its TGI.
9.43 µM

Given O=CNC(Cc1cnc[nH]1)C(=O)O (stereo not drawn) , respond with its TGI.
> 100 µM

Given OCc1c(-c2cccs2)oc(-c2cccs2)c1CO , respond with its TGI.
60.5 µM

###

Would you kindly list log10 TGI for each of these molecules?
Test system: MOLT-4 leukemia
Test: NCI tumour cell line growth inhibition, 48 h
In plain terms, each number is the log10 of measured TGI in µM.

Given CCN(CC)Cc1cc(N=Nc2c(O)ccc3c(N=Nc4ccc(O)c(CN(CC)CC)c4)c(O)ccc23)ccc1O , respond with its log10 TGI.
1.08

Given CNc1c2ccccc2nc2occ(Cl)c12 , respond with its log10 TGI.
1.81

Given COc1ccc(Cn2cc3c(c2-c2ccccc2)CCc2cnoc2-3)cc1 , respond with its log10 TGI.
0.64

Given Nc1cc(C2CCCc3c2[nH]c2ccccc32)ccc1O (stereo not given) , respond with its log10 TGI.
1.96

Given O=C(c1ccccc1)c1nc2c(Cl)ccc(Cl)c2cc1C(Br)Br , respond with its log10 TGI.
0.85

###

Tested on: CCRF-CEM leukemia
Assay: NCI tumour cell line growth inhibition, 48 h
// F strictly below 30 µM in TGI; T otherwise

Is reported TGI greater than or equal to 30 µM here: COc1ccc2nc3cc(Cl)ccc3c(Sc3ccc(N)cc3)c2c1
F

Is reported TGI greater than or equal to 30 µM here: NCCCn1c(Cl)nc2ccccc21
T

Is reported TGI greater than or equal to 30 µM here: CCOC(=O)NC(Nc1ccc(F)cc1F)(C(F)(F)F)C(F)(F)F
T

Is reported TGI greater than or equal to 30 µM here: CCCCC[C@@H]1CCCC2NC(CCCCCO[Si](c3ccccc3)(c3ccccc3)C(C)(C)C)CCC21 (some centres undefined)
F

Is reported TGI greater than or equal to 30 µM here: C=CC[P@]1(=O)O[C@H](c2ccccc2)C(C)N1C(C)C (some centres undefined)
T

Is reported TGI greater than or equal to 30 µM here: COc1ccc2[nH]c3c(C)c4c(c(C)c3c2c1)CN(C)C=C4
T

Is reported TGI greater than or equal to 30 µM here: CC(O)C(CO)NC(=O)C1CSSCC(NC(=O)C(N)Cc2ccccc2)C(=O)NC(Cc2ccccc2)C(=O)NC(Cc2c[nH]c3ccccc23)C(=O)NC(CCCCN)C(=O)NC(C(C)O)C(=O)N1 (centres undefined)
T

Is reported TGI greater than or equal to 30 µM here: CC(=O)C1=C(C)N(c2ccccc2)C2(O)C3=C(C(=O)c4ccccc4C3=O)C(O)=CC12Cl (centres undefined)
T

Is reported TGI greater than or equal to 30 µM here: O=C1/C(=C/c2ccc(F)cc2)COc2ccc(O)c(O)c21
F

Is reported TGI greater than or equal to 30 µM here: N=C1OC(CN2CCN(c3ccccc3)CC2)CN1C(=O)Nc1ccccc1 (centres undefined)
T

Is reported TGI greater than or equal to 30 µM here: COc1ccc(-c2cc(=O)c3c(O)c(O)c(OC)cc3o2)cc1O
T

Is reported TGI greater than or equal to 30 µM here: CN(C)CCNC(=O)c1cccc2c1C(=O)c1ccccc1C2=O
T

Is reported TGI greater than or equal to 30 µM here: CN1C/C(=C\c2cccs2)C2=NN(c3ccccc3)C(c3cccs3)C2C1 (centres undefined)
F

Is reported TGI greater than or equal to 30 µM here: COc1ccc(CCN2CCCn3c2nc2ccccc2c3=O)cc1
T
